# study-system: β-amyloid1-42, P05067
# experiment-description: cell-based or functional assay
Lab note: anything with ACh rel % Inh @ 100 µM at or over 20% counts as 1; the rest go in 0.

binder: Ac-SERAYECCKEP-NH2 (cysteine pairing not given here)
assigned-category: 0
--
binder: Ac-SERFAECCKEP-NH2 (cysteine pairing not given here)
assigned-category: 0
--
binder: Ac-SERFYECAKEP-NH2
assigned-category: 1
--
binder: Ac-GIPGKRSERFYECCK-NH2 (cysteine pairing not given here)
assigned-category: 1
--
binder: Ac-SERFYECCKAP-NH2 (cysteine pairing not given here)
assigned-category: 1
--
binder: Ac-SARFYECCKEP-NH2 (cysteine pairing not given here)
assigned-category: 0
